Hi there, I'd appreciate the recorded EC50 for every entry that follows.
Molecular target: T1, cynomolgus monkey 4-1BB on CHO-K1 cells (cynomolgus monkey)
T1 chain: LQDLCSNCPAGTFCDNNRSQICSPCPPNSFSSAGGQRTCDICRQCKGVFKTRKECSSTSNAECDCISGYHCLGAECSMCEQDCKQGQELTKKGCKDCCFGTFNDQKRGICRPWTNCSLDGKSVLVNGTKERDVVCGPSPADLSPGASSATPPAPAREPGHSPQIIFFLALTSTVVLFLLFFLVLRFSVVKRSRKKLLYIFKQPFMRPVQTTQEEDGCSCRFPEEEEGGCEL
Assay: FACS; FIG. 12H
Give bare numbers, in nM.

Hi! Can you tell me EC50 for each of these binders?
1. Utomilumab (antibody, V domains shown) VH: EVQLVQSGAEVKKPGESLRISCKGSGYSFSTYWISWVRQMPGKGLEWMGKIYPGDSYTNYSPSFQGQVTISADKSISTAYLQWSSLKASDTAMYYCARGYGIFDYWGQGTLVTVSS VL: SYELTQPPSVSVSPGQTASITCSGDNIGDQYAHWYQQKPGQSPVLVIYQDKNRPSGIPERFSGSNSGNTATLTISGTQAMDEADYYCATYTGFGSLAVFGGGTKLTVLG
2. PR007286 (antibody, V domains shown) VH: EVQLVESGGGLVKPGGSLRLSCAASGFTFSDYYMSWIRQAPGKGLEWVSYISSSGSTIYYADSVKGRFTISRDNAKNSLYLQMNSLRAEDTAVYYCARVKPVAGTWDWFDPWGQGTPVTVSS
3. PR007287 (antibody, V domains shown) VH: EVQLEESGGGLVKPGGSLRLSCAASGFTFSDYYMSWFRQAPGKGLEWVSYISSSGSITDYADAVKGRFNISRDNAKNSLYLQMNSLRAEDTAVYYCAREREAVAGTLDFDNWGQGTLVTVSS
4. PR007288 (antibody, V domains shown) VH: EVQLVESGGGLVKPGGSLRLSCAASGFTFSDYYMSWFRQAPGKGLEWVSYISGSGSIIDYADSVKGRFTISRDNAKNSLYLQMNSLRAEDTAVYYCSREREAVAGTLDFDYWGQGTLVTVSS

Resp:
0.393
4.61
1.17
0.903
